B1: KRT15 (parent)
chain: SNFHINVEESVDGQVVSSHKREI

# Variants of: B1
# run.description: protein stability index of a GFP-peptide fusion (GPS, HEK-293T) (PSI 1-6); higher = more stable;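 also: lentivirally expressed fusions sorted by FACS into six bins by GFP to DsRed ratio, PSI derived from sequencing read proportions per bin multiplied by bin number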
# condition.set: c terminus: native
Kindly supply the reported protein stability index values for the records listed here.
Answers are plain numbers.

Answered examples (2):
Ask: Look up and state reported protein stability index for SNFHINVEESVDGQVVSSIKREI [H19I]
Result: 2.03

Ask: Look up and state reported protein stability index for SCFHINVEESVDGQVVSSHKREI [N2C]
Result: 2.13

For each of the variants below, state protein stability index.
1. SNTHINVEESVDGQVVSSHKREI [F3T]
2. INFHINVEESVDGQVVSSHKREI [S1I]
3. SNFHIEVEESVDGQVVSSHKREI [N6E]
4. SNFHINMEESVDGQVVSSHKREI [V7M]
5. SNFHINVEESVDGQVVSSHKRFI [E22F]
6. SDFHINVEESVDGQVVSSHKREI [N2D]
7. SNFHINVEESVDGQHVSSHKREI [V15H]

Result:
1: 2.69; 2: 2.56; 3: 1.88; 4: 1.14; 5: 4.19; 6: 1.78; 7: 1.83

For each of the variants below, state protein stability index.
1. SNFHINVEEEVDGQVVSSHKREI [S10E]
2. SNFHNNVEESVDGQVVSSHKREI [I5N]

Result:
[2.57, 3.36]

For each of the variants below, state protein stability index.
1. SNFHINVEESVDGQVVSSHHREI [K20H]
2. SPFHINVEESVDGQVVSSHKREI [N2P]
3. SNFHINVEESVDGQVVSSHTREI [K20T]
4. TNFHINVEESVDGQVVSSHKREI [S1T]
5. SNFHINVEESTDGQVVSSHKREI [V11T]
6. SNFHINVEESVSGQVVSSHKREI [D12S]
7. SNFHINVAESVDGQVVSSHKREI [E8A]
8. SNFHINVEESGDGQVVSSHKREI [V11G]

Result:
1. 2.51
2. 3.02
3. 3.08
4. 2.73
5. 1.67
6. 2.07
7. 1.57
8. 1.7

For each of the variants below, state protein stability index.
1. SNFHINVEESVDGQVVSSHKRER [I23R]
2. SNFHINVEESVDGQVVSSHYREI [K20Y]
3. SNFHINVEESNDGQVVSSHKREI [V11N]

Result:
1. 3.09
2. 2.18
3. 2.33
